Hey, just so you know, these numbers are from patent US20240392013A1.

// values below are reported IC50
# Test system: IL33-induced NFκB activity
# procedure summary: HEK-BlueIL33 NFκB Reporter Assay
# Type: cell-based, human
# condition details: nM range, read-out: IC50, inhibition of IL33-induced NFκB activity
measure: IC50 (nM)

{"molecule": "74804_51C10A: anti-IL1RAP mAb; VH SEQ ID NO:8, VL SEQ ID NO:24, κ light chain (antibody, V domains shown, 74804_51C10A VH; 74804_51C10A VL) VH: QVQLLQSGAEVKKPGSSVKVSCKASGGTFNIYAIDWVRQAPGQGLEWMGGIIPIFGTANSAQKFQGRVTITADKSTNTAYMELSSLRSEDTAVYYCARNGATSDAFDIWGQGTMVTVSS VL: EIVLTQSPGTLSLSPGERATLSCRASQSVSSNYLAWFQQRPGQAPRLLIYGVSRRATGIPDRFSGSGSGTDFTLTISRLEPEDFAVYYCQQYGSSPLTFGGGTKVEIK", "result value": 13}
{"molecule": "74804_27I24A: anti-IL1RAP mAb; VH SEQ ID NO:13, VL SEQ ID NO:29, λ light chain (antibody, V domains shown, 74804_27I24A VH; 74804_27I24A VL) VH: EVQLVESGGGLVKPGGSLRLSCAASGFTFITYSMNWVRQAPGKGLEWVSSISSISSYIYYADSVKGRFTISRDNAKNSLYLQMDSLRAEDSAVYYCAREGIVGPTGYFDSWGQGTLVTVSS VL: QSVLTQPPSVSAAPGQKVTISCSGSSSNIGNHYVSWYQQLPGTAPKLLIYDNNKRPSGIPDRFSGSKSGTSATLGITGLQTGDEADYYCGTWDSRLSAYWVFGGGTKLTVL", "result value": 8.31}
{"molecule": "74804_29D13A: anti-IL1RAP mAb; VH SEQ ID NO:6, VL SEQ ID NO:22, κ light chain (antibody, V domains shown, 74804_12A21B VH and 74804_29D13A VH; 74804_07K10A VL, 74804_29D13A VL and 74804_43F04A VL) VH: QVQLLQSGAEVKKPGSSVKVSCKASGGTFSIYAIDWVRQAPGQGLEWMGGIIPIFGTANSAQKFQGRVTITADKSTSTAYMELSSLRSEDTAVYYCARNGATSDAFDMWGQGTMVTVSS VL: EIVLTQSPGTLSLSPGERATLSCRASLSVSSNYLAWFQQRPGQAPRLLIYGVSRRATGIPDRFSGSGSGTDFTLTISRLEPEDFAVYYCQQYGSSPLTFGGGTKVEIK", "result value": 8.75}
{"molecule": "74804_45C18A: anti-IL1RAP mAb; VH SEQ ID NO:11, VL SEQ ID NO:27, κ light chain (antibody, V domains shown, 74804_45C18A VH; 74804_45C18A VL) VH: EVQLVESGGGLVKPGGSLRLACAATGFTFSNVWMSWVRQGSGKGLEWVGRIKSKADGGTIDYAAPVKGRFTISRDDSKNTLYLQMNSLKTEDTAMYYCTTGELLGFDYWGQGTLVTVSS VL: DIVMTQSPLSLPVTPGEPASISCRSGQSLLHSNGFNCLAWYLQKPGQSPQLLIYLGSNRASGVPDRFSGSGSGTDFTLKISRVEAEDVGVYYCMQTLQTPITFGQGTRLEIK", "result value": 1.37}
{"molecule": "74804_05B24A: anti-IL1RAP mAb; VH SEQ ID NO:10, VL SEQ ID NO:26, κ light chain (antibody, V domains shown, 74804_05B24A VH; 74804_05B24A VL) VH: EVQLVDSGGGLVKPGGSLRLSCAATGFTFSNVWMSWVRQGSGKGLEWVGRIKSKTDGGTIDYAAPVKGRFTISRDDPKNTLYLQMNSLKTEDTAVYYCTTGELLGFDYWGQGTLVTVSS VL: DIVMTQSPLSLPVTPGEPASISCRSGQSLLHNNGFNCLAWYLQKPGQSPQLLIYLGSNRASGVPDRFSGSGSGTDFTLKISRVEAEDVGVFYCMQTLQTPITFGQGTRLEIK", "result value": 2.72}
{"molecule": "74804_43F04A: anti-IL1RAP mAb; VH SEQ ID NO:7, VL SEQ ID NO:22, κ light chain (antibody, V domains shown, 74804_43F04A VH; 74804_07K10A VL, 74804_29D13A VL and 74804_43F04A VL) VH: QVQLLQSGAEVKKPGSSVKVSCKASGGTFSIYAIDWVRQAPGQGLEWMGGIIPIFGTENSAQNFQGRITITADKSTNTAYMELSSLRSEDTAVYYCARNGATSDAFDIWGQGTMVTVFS VL: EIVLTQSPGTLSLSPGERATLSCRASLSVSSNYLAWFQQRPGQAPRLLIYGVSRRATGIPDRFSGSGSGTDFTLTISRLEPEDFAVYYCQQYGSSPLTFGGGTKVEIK", "result value": 9.62}
{"molecule": "74804_25H09A: anti-IL1RAP mAb; VH SEQ ID NO:9, VL SEQ ID NO:25, κ light chain (antibody, V domains shown, 74804_25H09A VH; 74804_25H09A VL) VH: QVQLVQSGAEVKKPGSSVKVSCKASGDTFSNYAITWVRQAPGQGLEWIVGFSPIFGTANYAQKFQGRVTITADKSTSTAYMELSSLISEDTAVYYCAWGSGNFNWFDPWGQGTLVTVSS VL: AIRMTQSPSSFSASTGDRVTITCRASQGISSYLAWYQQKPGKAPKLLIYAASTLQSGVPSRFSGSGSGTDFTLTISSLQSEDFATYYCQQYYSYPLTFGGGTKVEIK", "result value": 6.55}
{"molecule": "74804_18L05A: anti-IL1RAP mAb; VH SEQ ID NO:4, VL SEQ ID NO:21, κ light chain (antibody, V domains shown, 74804_18L05A VH; 74804_18L05A VL) VH: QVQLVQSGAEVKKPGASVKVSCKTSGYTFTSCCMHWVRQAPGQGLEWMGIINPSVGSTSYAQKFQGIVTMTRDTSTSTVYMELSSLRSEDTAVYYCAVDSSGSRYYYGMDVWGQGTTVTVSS VL: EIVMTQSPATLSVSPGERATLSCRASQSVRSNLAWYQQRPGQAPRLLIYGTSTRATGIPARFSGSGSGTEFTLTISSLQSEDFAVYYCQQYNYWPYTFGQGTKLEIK", "result value": 4.81}
